Target: T1, biotinylated ADDL (bADDL) (UniProt P05067 672-713, N-terminal biotin)
T1 construct: domain: Aβ1-42; Soluble oligomers of Aβ1-42; also called bADDLs; biotinylated high molecular weight ADDL
Test: BIACORE, bADDL as antigen; column IgG1 #2
readout.name: pKd
In textbook form, pKd equals minus log to base ten of the concentration in mol/L.

20C2-8A IgG1 (antibody, V domains shown, IgG1 humanized A version; also called SJ-p2-39) VH: QVTLKESGPALVKPTQTLTLTCTFSGFSLSTSGMGVGWIRQPPGKALEWLAHIWWDDDKSYNPSLKSRLTISKDTSKNQVVLTMTNMDPVDTATYYCARRQLGLRSIDAMDYWGQGTTVTVSS VL: DVVMTQSPLSLPVTPGEPASISCRSSQSILHSNGNTYLEWYLQKPGQSPQLLIYKVSNRFSGVPDRFSGSGSGTDFTLKISRVEAEDVGVYYCLQTTRVPLTFGQGTKLEIK = 12.15
20C2-8B IgG1 (antibody, V domains shown, IgG1 humanized B version; also called SJ-p2-39) VH: QVTLKESGPALVKPTQTLTLTCTLSGFSLSTSGMGVGWIRQPPGKALEWLAHIWWDDDKSYNPSLKSRLTISKDTSKNQVVLTMTNMDPVDTATYYCARRQLGLRSIDAMDYWGQGTTVTVSS VL: DVVMTQSPLSLPVTPGEPASISCRSSQSILHSNGNTYLEWYLQKPGQSPQLLIYKVSNRFSGVPDRFSGSGSGTDFTLKISRVEAEDVGVYYCLQTTRVPLTFGQGTKLEIK = 12.10

Now turn to the next binder.
Data request: Any idea what pKd was measured for 20C2-6A IgG1 (antibody, V domains shown, IgG1 humanized A version; also called 4P1-22) VH: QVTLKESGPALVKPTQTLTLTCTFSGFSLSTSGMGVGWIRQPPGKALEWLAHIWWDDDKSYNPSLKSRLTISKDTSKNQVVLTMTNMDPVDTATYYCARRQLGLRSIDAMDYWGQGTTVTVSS VL: DVVMTQSPLSLPVTPGEPASISCRSSQSILHSNGNTYLEWYLQKPGQSPQLLIYKVSNRFSGVPDRFSGSGSGTDFTLKISRVEAEDVGVYYCFQSSRVPLTFGQGTKLEIK ?
Data returned: 10.62

Ref: patent US20070081998A1
